system: Parabacteroides merdae; experiment: Antibacterial activity against Parabacteroides merdae isolated from patient with diabetic foot infection after 44 to 48 hrs by agar dilution method; assay type: functional
Measurement Type: MIC50 (µg/mL)

# Molecule, Output Unit, Measured Value
rows = [
    ("C[C@@H](O)[C@H]1C(=O)N2C(C(=O)O)=C(S[C@@H]3CN[C@H](CNS(N)(=O)=O)C3)[C@H](C)[C@H]12", "µg/mL", 0.25),
    ("C[C@@H](O)[C@H]1C(=O)N2C(C(=O)O)=C(S[C@@H]3CN[C@H](C(=O)Nc4cccc(C(=O)O)c4)C3)[C@H](C)[C@H]12", "µg/mL", 1),
    ("C[C@@H](O)[C@H]1C(=O)N2C(C(=O)O)=C(SCCNC=N)C[C@H]12 [IMIPENEM ANHYDROUS]", "µg/mL", 0.5),
    ("C[C@@H](O)[C@H]1C(=O)N2C(C(=O)O)=C(S[C@@H]3CN[C@H](C(=O)N(C)C)C3)[C@H](C)[C@H]12", "µg/mL", 0.25),
    ("Cc1ncc([N+](=O)[O-])n1CCO", "µg/mL", 0.5),
    ("CCC[C@@H]1C[C@@H](C(=O)N[C@@H]([C@H]2O[C@H](SC)[C@H](O)[C@@H](O)[C@H]2O)[C@H](C)Cl)N(C)C1", "µg/mL", 2),
]

Data provenance is ChEMBL document CHEMBL1153560.
